For each entry below, report its TGI value.
Tested on: NCI-H522 lung
PROTOCOL TEXT: NCI tumour cell line growth inhibition, 48 h

Answered cases to consult:
In [3]: df
Out[3]:
                                   compound  quantity    result
0  CCOC(=O)C1S/C(=N\C(=N)N[N+](=O)[O-])N=C1C (configuration not stated)       TGI  > 100 µM
1     COc1ccc2nc3ccccc3c(NCc3ccc(F)cc3)c2c1       TGI   9.38 µM
2  C#CC1/C(=C\C(=O)OC)CCCC1O (configuration not stated)       TGI  > 100 µM
3  COc1cnc2c(c1)C(=O)c1c-2n(CCCN2CCOCC2)c(=O)c2cc(Cl)ccc12       TGI  > 100 µM
4               C/C(C[n+]1ccccc1)=N\N=C(N)N       TGI  > 100 µM

Please give TGI, item by item, for the list that follows.
1. S=C1NC2=C(CSC/C2=C\c2cccc(Br)c2)C(c2cccc(Br)c2)N1 (configuration not stated)
2. O=C1c2ccccc2C(=O)N1n1c(Cc2ccc([N+](=O)[O-])cc2)n[nH]c1=O

a:
1. > 100 µM
2. > 100 µM

---

Tested on: SN12C renal
PROTOCOL TEXT: NCI tumour cell line growth inhibition, 48 h; in the data active = GI50 below about 0.43 µM; inactive = the rest
Reply using exactly one outcome from yes = active, no = inactive

Some solved cases for reference:
>>> print(df.to_string())
                                   compound  cat
0  CNCCOC(=O)/C=C1\CC[C@H]2[C@@H]([C@@H](O)C(=O)[C@@H]3[C@]2(C)CC[C@H](O)[C@]3(C)C(=O)OC)[C@H]1C  yes
1  C[C@@H]1C[C@@H]([C@@H](CC2CC(=O)NC(=O)C2)OC(=O)CC(=O)c2ccccc2)C(=O)[C@@H](C)C1  yes
2  O=c1c(F)cn(Cc2ccc(C34CC5CC(CC(C5)C3)C4)c(O)c2)c(=O)n1Cc1ccc(C23CC4CC(CC(C4)C2)C3)c(O)c1   no

Attention now turns to another entry.
q: Which outcome was assigned to CC1(C)OC2C(CO[Si](C)(C)C(C)(C)C)OC(n3c(I)c(C#C[Si](C)(C)C)c(=O)[nH]c3=O)C2O1 (centres undefined) in this test?
a: no

---

Tested on: U251 CNS
PROTOCOL TEXT: NCI tumour cell line growth inhibition, 48 h
QUANTITY: TGI

>>> print(df.to_string())
                                   compound  assay_system  quantity    result
0      CN1CCOC1c1ccccc1O (stereo not given)      U251 CNS       TGI  > 100 µM
1  CSC1=N/C(=C\c2ccc(C)cc2)C(=O)N1CN1CCCCC1      U251 CNS       TGI  > 100 µM
2  CC1(C)COC(c2cccc3c2C(=O)c2cccc(Cl)c2-3)=N1      U251 CNS       TGI  > 100 µM
3  O=C(O)CN1CCNCCN(CC(=O)O)CCN(CC(=O)O)CCNCC1      U251 CNS       TGI  > 100 µM
4  CN(C)CC[C@H](CSc1ccccc1)Nc1ccc(S(=O)(=O)NC(=O)c2ccc(N3CCN(Cc4ccccc4-c4ccc(Cl)cc4)CC3)cc2)cc1[N+](=O)[O-]      U251 CNS       TGI   17.4 µM
5  COC(=O)[C@]12CC[C@@H](C)[C@H](C)[C@@H]1C1=CC[C@@H]3[C@@]4(C)C[C@@H](O)[C@H](O)[C@@](C)(CO)C4=CC[C@@]3(C)[C@]1(C)CC2      U251 CNS       TGI   34.1 µM
6  COc1ccc(C2OC(c3ccncc3)=NN2C)cc1F (stereo not given)      U251 CNS       TGI  > 100 µM
7  C/C(CC(=O)Nc1ccc(C)c(C)c1)=N\N(c1ccccc1)c1ccccc1      U251 CNS       TGI   30.5 µM
8  O=C(/C=C/c1ccc[nH]1)c1ccc(-n2ccc(C(F)(F)F)n2)cc1      U251 CNS       TGI  > 100 µM
9  OC[C@H]1O[C@@H]2O[C@@](COCc3ccccc3)([C@H](OCc3ccccc3)[C@H]2O)[C@@H]1OCc1ccccc1      U251 CNS       TGI   29.5 µM

Batch of 4 compounds: report TGI for each.
1. O=[N+]([O-])c1ccc2occ3c2c1CCC3
2. O=C(NCP(=O)(Oc1ccccc1)Oc1ccccc1)OCc1ccccc1
3. COC(=O)c1ccc2c(c1)C(=O)c1c-2n(CCCN=[N+]=[N-])c(=O)c2cc(OC)c(OC)cc12
4. COc1ccc(C2c3cn[nH]c3CC3CCCCC32)cc1 (stereo not given)

a:
["> 100 µM", "> 100 µM", "> 100 µM", "28.9 µM"]
